Biological target: BMX (human)
Test: radiometric filter-binding kinase assay, Kinase HotSpot
Conditions: compound 0.5 µM; ATP 10 µM
# key: entry, value: residual activity
Report the figure in % without appending any unit label.

[[record]]
compound = "O=C1NC(=O)C(c2c[nH]c3ccccc23)=C1c1c[nH]c2ccccc12"
reported_endpoint = "residual activity"
observed_result = 100

[[record]]
compound = "Cn1cnc2cc3c(Nc4cccc(Br)c4)ncnc3cc21"
reported_endpoint = "residual activity"
observed_result = 96.6


Enquiry: Quote BMX (human) residual activity for entry Cn1nc2c3c(cccc31)C(=O)c1ccccc1-2 .
Return: 101

###

# key: entry, value: residual activity
Molecular target: UniProt P10721
Sequence (P10721 whole entry, looked up): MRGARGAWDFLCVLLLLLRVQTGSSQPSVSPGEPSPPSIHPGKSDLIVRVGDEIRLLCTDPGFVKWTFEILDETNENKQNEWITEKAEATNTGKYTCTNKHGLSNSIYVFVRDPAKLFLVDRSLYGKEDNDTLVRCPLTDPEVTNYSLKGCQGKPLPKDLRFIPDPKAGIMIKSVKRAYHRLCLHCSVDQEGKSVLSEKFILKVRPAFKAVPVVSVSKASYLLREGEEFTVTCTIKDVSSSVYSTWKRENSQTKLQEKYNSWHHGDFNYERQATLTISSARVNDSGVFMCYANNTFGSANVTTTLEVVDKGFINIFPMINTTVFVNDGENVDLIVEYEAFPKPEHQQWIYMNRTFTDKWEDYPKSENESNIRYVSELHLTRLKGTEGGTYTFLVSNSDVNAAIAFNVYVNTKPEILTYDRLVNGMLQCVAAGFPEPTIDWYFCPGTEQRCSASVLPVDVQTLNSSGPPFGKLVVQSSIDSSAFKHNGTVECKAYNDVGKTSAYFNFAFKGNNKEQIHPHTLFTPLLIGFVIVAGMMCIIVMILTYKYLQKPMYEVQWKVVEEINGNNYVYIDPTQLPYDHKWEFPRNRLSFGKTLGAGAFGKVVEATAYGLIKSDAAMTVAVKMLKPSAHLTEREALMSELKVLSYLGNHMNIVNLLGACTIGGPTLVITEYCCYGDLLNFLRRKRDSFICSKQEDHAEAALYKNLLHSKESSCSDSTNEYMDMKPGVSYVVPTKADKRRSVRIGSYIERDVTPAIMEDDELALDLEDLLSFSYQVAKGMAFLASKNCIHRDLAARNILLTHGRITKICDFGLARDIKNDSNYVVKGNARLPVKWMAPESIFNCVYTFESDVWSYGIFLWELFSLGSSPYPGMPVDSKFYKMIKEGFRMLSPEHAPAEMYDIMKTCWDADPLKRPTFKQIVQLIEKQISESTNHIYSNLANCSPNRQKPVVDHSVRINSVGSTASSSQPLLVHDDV
Experiment: radiometric filter-binding kinase assay, Kinase HotSpot
Settings: compound 0.5 µM; ATP 10 µM
Report the figure in % without appending any unit label.

# count of solved cases: 6
[[record]]
molecular_string = "COc1ccc(OC)c2c(=S)c3ccccc3[nH]c12"
reported_endpoint = "residual activity"
observed_result = 78.6

[[record]]
molecular_string = "CN(C)C[C@H]1CCn2c(c(C3=C(c4cn(C)c5ccccc45)C(=O)NC3=O)c3ccccc32)C1"
reported_endpoint = "residual activity"
observed_result = 92.7

[[record]]
molecular_string = "Oc1ccc(Nc2nc(-c3ccc(Cl)cc3)cs2)cc1"
reported_endpoint = "residual activity"
observed_result = 92

[[record]]
molecular_string = "Nc1nccc(-c2c(-c3ccc(F)cc3)ncn2C2CCNCC2)n1"
reported_endpoint = "residual activity"
observed_result = 98.4

[[record]]
molecular_string = "Cn1sc(=O)n(Cc2ccccc2)c1=O"
reported_endpoint = "residual activity"
observed_result = 101

[[record]]
molecular_string = "O=C1NC(=O)C(c2cn(CCCO)c3ncccc23)=C1c1cnccn1"
reported_endpoint = "residual activity"
observed_result = 93


Enquiry: Consider the compound CCN(CC)CCCCN1c2ccccc2Oc2ccc(Cl)cc21 . State its measured residual activity.
Return: 107

Enquiry: Consider the compound Cn1cnc2cc3c(Nc4cccc(Br)c4)ncnc3cc21 . State its measured residual activity.
Return: 78.6

Enquiry: Consider the compound O=C1Nc2ccccc2/C1=C1\Nc2ccccc2\C1=N/O . State its measured residual activity.
Return: 73.2

Enquiry: Consider the compound COc1ccc(CNC(=O)Nc2ncc([N+](=O)[O-])s2)cc1 . State its measured residual activity.
Return: 103

Enquiry: Consider the compound O=C(CCCc1ccc(-c2ccccc2F)cc1)Nc1ccc(O)cc1 . State its measured residual activity.
Return: 96.3

Enquiry: Consider the compound Cn1nc2c3c(cccc31)C(=O)c1ccccc1-2 . State its measured residual activity.
Return: 86.4

###

Biological target: UniProt:O95747
Sequence (O95747 whole entry, looked up): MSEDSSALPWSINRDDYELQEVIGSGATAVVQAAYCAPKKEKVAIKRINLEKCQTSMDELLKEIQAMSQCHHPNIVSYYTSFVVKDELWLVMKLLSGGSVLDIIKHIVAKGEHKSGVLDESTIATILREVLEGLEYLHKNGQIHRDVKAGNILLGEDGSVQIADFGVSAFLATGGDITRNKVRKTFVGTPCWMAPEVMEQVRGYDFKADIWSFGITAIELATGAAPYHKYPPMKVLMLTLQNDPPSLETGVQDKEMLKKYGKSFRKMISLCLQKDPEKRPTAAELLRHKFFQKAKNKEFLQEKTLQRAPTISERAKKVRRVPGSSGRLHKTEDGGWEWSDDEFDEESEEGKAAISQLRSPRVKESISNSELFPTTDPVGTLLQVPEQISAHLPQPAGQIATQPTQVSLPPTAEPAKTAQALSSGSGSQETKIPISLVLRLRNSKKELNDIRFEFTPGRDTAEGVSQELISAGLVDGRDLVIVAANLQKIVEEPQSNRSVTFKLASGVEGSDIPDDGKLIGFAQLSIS
Experiment: radiometric filter-binding kinase assay, Kinase HotSpot
Conditions: compound 0.5 µM; ATP 10 µM
REPORTED_ENDPOINT: residual activity (%)
Report the figure in % without appending any unit label.

[[record]]
molecular_string = "CC(C)[C@H](CO)Nc1nc(Nc2cc(N)cc(Cl)c2)c2ncn(C(C)C)c2n1"
assayed_target = "UniProt:O95747"
reported_endpoint = "residual activity"
units = "%"
observed_result = 100

[[record]]
molecular_string = "COc1ccc(OC)c2c(=S)c3ccccc3[nH]c12"
assayed_target = "UniProt:O95747"
reported_endpoint = "residual activity"
units = "%"
observed_result = 90.6

[[record]]
molecular_string = "Oc1ccc(Nc2nc(-c3ccc(Cl)cc3)cs2)cc1"
assayed_target = "UniProt:O95747"
reported_endpoint = "residual activity"
units = "%"
observed_result = 88.8

[[record]]
molecular_string = "O=C(Nc1cccc(Nc2cc(Nc3cccc(C(F)(F)F)c3)ncn2)c1)C1CC1"
assayed_target = "UniProt:O95747"
reported_endpoint = "residual activity"
units = "%"
observed_result = 110

[[record]]
molecular_string = "COc1cc2ncnc(N3CCN(C(=O)Nc4ccc(Oc5ccccc5)cc4)CC3)c2cc1OC"
assayed_target = "UniProt:O95747"
reported_endpoint = "residual activity"
units = "%"
observed_result = 119


Now consider a different compound.
Enquiry: Quote UniProt:O95747 residual activity for entry COc1cc2ncc(-c3ccccc3)nc2cc1OC .
Return: 100

###

Target: STK24 (human)
Assay: radiometric filter-binding kinase assay, Kinase HotSpot
Settings: compound 0.5 µM; ATP 10 µM
Note to self: use rule met only for residual activity readings below 90%; a reading exactly at 90% still gets rule not met.

# example entries with known answers
[[record]]
molecule = "COc1cc2ncnc(N3CCN(C(=O)Nc4ccc(Oc5ccccc5)cc4)CC3)c2cc1OC"
group = "rule not met"

[[record]]
molecule = "Cn1sc(=O)n(Cc2ccccc2)c1=O"
group = "rule not met"

[[record]]
molecule = "O=C1NC(=O)/C(=C\\c2ccc3nccnc3c2)S1"
group = "rule not met"

[[record]]
molecule = "COc1ccc(OC)c2c(=S)c3ccccc3[nH]c12"
group = "rule met"

[[record]]
molecule = "Cn1nc2c3c(cccc31)C(=O)c1ccccc1-2"
group = "rule not met"

[[record]]
molecule = "O=C(O)/C=C/c1cc(Br)c(Br)c(Br)c1Br"
group = "rule met"


Enquiry: Consider the molecule CC(C)c1nn(-c2c(Cl)cccc2Cl)c2nc(Cc3ccc(OCCO)cc3)nc(O)c12 . Is its residual activity strictly less than 90%?
Return: rule met

Enquiry: Consider the molecule Nc1nccc(-c2c(-c3ccc(F)cc3)ncn2C2CCNCC2)n1 . Is its residual activity strictly less than 90%?
Return: rule not met

Enquiry: Consider the molecule CCn1cnc2c(Nc3cccc(Cl)c3)nc(N[C@@H]3CCCC[C@@H]3N)nc21 . Is its residual activity strictly less than 90%?
Return: rule met

Enquiry: Consider the molecule O=C1Cc2c([nH]c3ccc(Br)cc23)-c2ccccc2N1 . Is its residual activity strictly less than 90%?
Return: rule met

Enquiry: Consider the molecule Cn1cnc2cc3c(Nc4cccc(Br)c4)ncnc3cc21 . Is its residual activity strictly less than 90%?
Return: rule met

Enquiry: Consider the molecule O=C1Nc2ccccc2/C1=C1/Nc2ccccc2/C1=N\OCCC(O)CO (configuration not stated) . Is its residual activity strictly less than 90%?
Return: rule met

Enquiry: Consider the molecule CN(C)C[C@H]1CCn2c(c(C3=C(c4cn(C)c5ccccc45)C(=O)NC3=O)c3ccccc32)C1 . Is its residual activity strictly less than 90%?
Return: rule met

Enquiry: Consider the molecule O=C1NC(=O)C(c2c[nH]c3ccccc23)=C1c1c[nH]c2ccccc12 . Is its residual activity strictly less than 90%?
Return: rule met

Enquiry: Consider the molecule Oc1ccc(Nc2nc(-c3ccc(Cl)cc3)cs2)cc1 . Is its residual activity strictly less than 90%?
Return: rule not met

###

# key: entry, value: residual activity
Target: UniProt Q9BYT3
Sequence (Q9BYT3 whole entry, looked up): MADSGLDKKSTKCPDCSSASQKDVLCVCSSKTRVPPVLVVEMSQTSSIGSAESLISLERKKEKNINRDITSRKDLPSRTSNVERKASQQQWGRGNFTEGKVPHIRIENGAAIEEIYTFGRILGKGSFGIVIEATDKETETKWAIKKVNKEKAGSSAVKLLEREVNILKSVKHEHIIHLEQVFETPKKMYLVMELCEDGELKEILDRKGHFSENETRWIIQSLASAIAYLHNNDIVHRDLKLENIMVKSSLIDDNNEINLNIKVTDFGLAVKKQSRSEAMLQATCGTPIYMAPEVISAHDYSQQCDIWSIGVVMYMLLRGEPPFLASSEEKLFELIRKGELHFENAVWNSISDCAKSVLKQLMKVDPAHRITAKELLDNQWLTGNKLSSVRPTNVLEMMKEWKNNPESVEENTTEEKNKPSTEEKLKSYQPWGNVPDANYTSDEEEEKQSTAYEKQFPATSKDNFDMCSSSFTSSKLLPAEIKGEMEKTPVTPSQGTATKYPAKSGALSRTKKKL
Experiment: radiometric filter-binding kinase assay, Kinase HotSpot
Conditions: compound 0.5 µM; ATP 10 µM
Report the figure in % without appending any unit label.

# count of solved cases: 4
[[record]]
molecular_string = "O=C(Nc1cccc(Nc2cc(Nc3cccc(C(F)(F)F)c3)ncn2)c1)C1CC1"
observed_result = 105

[[record]]
molecular_string = "Cc1nc2cc3nc(-c4cccs4)cnc3cc2n1C"
observed_result = 91.5

[[record]]
molecular_string = "Cn1cnc2cc3c(Nc4cccc(Br)c4)ncnc3cc21"
observed_result = 99.3

[[record]]
molecular_string = "O=C1NC(=O)C(c2c[nH]c3ccccc23)=C1c1c[nH]c2ccccc12"
observed_result = 97.7


Enquiry: Consider the compound CN(C)C[C@H]1CCn2c(c(C3=C(c4cn(C)c5ccccc45)C(=O)NC3=O)c3ccccc32)C1 . State its measured residual activity.
Return: 94.8

Enquiry: Consider the compound CN([C@@H](Cc1ccc(OS(=O)(=O)c2cccc3cnccc23)cc1)C(=O)N1CCN(c2ccccc2)CC1)S(=O)(=O)c1cccc2cnccc12 . State its measured residual activity.
Return: 97.3

Enquiry: Consider the compound O=C1Cc2c([nH]c3ccc(Br)cc23)-c2ccccc2N1 . State its measured residual activity.
Return: 103

###

Target: PDPK1 (human) (UniProt O15530)
Sequence (O15530 whole entry, looked up): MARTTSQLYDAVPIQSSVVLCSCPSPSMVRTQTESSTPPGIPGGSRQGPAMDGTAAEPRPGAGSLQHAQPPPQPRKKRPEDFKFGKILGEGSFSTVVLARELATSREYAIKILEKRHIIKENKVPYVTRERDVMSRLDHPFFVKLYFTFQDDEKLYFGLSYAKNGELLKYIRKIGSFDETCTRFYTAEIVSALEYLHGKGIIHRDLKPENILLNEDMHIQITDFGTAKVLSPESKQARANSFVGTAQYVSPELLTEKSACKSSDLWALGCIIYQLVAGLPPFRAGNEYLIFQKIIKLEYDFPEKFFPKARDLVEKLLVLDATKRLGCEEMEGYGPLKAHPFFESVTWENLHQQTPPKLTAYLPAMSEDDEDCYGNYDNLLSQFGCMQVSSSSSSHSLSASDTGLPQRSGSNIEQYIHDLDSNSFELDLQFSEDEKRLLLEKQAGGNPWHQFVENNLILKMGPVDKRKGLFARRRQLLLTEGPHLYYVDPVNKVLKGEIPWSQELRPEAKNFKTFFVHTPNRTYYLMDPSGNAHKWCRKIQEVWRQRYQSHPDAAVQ
Assay: radiometric filter-binding kinase assay, Kinase HotSpot
Conditions: compound 0.5 µM; ATP 10 µM
REPORTED_ENDPOINT: residual activity (%)
Report the figure in % without appending any unit label.

# count of solved cases: 8
[[record]]
molecule = "O=C1NC(=O)C(c2cn(CCCO)c3ncccc23)=C1c1cnccn1"
observed_result = 92.2

[[record]]
molecule = "Cn1cnc2cc3c(Nc4cccc(Br)c4)ncnc3cc21"
observed_result = 98.8

[[record]]
molecule = "O=C(O)/C=C/c1cc(Br)c(Br)c(Br)c1Br"
observed_result = 96.2

[[record]]
molecule = "COc1cc2ncnc(N3CCN(C(=O)Nc4ccc(Oc5ccccc5)cc4)CC3)c2cc1OC"
observed_result = 92.3

[[record]]
molecule = "O=C1Cc2c([nH]c3ccc(Br)cc23)-c2ccccc2N1"
observed_result = 94.9

[[record]]
molecule = "O=C(CCCc1ccc(-c2ccccc2F)cc1)Nc1ccc(O)cc1"
observed_result = 112

[[record]]
molecule = "O=C1NC(=O)C(c2c[nH]c3ccccc23)=C1c1c[nH]c2ccccc12"
observed_result = 96.7

[[record]]
molecule = "Cn1sc(=O)n(Cc2ccccc2)c1=O"
observed_result = 95.5


Enquiry: Consider the molecule Nc1nnc2[nH]c3ccccc3nc1-2 . State its measured residual activity.
Return: 96.8

Enquiry: Consider the molecule O=C1Nc2ccccc2/C1=C1/Nc2ccccc2/C1=N\OCCC(O)CO (stereo not drawn) . State its measured residual activity.
Return: 83.3

Enquiry: Consider the molecule COc1ccc(CNC(=O)Nc2ncc([N+](=O)[O-])s2)cc1 . State its measured residual activity.
Return: 90

Enquiry: Consider the molecule Cn1nc2c3c(cccc31)C(=O)c1ccccc1-2 . State its measured residual activity.
Return: 94.5

Enquiry: Consider the molecule CN([C@@H](Cc1ccc(OS(=O)(=O)c2cccc3cnccc23)cc1)C(=O)N1CCN(c2ccccc2)CC1)S(=O)(=O)c1cccc2cnccc12 . State its measured residual activity.
Return: 96.4
